B1: KIAA1614 peptide 568-583 (uncharacterized protein KIAA1614), 16-mer library wild type / USP8 rhodanese domain (ubiquitin carboxyl-terminal hydrolase 8, residues 174-317) (parent)
chain 1: GMERVLGGLSSPLRLL
chain 2: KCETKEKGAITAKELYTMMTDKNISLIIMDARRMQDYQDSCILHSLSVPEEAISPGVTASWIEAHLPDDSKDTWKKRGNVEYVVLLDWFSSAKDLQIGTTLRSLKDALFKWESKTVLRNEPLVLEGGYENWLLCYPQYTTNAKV

- Variants of: B1
- test_name: peptide-phage display deep mutational scan (M13, 16-mer library, displayed with a C-terminal GGGSG linker encoded by the 3' flank) selected against the GST-tagged USP8 rhodanese domain, four rounds; NGS counts summed over selection …
- condition_context: with USP8 rhodanese domain (ubiquitin carboxyl-terminal hydrolase 8, residues 174-317), 10 µg GST-bait on MaxiSorp, pre-cleared on GST, 2 h at 4 °C, five washes with 0.05% Tween 20 in PBS, not graded, scale: average over two replicas of the peptide's fractional NGS count
measurement_type: screen value

Worked set:
[[record]]
variant_annotation = "chain 1 L9T"
measurement_type = "screen value"
readout_number = 0.0151

[[record]]
variant_annotation = "chain 1 L9W"
measurement_type = "screen value"
readout_number = 0.000202

[[record]]
variant_annotation = "chain 1 P12R"
measurement_type = "screen value"
readout_number = "1.26e-05"

[[record]]
variant_annotation = "chain 1 V5M"
measurement_type = "screen value"
readout_number = 0.00268

[[record]]
variant_annotation = "chain 1 L9D"
measurement_type = "screen value"
readout_number = 0.0392


1. chain 1 G1H
2. chain 1 G8T
3. chain 1 E3W
4. chain 1 G1W
5. chain 1 V5G
hey, can you rank those variants up there by screen value? biggest number first please # answer = labels listed in requested order
1, 5, 4, 3, 2
